Protocol summary: Spermicidal activity in human semen assessed as sperm immobilization at 1.0 % w/v up to 30 seconds by phase contrast microscopy
Type: functional
Exercise: state measured Activity for each of the compounds provided.
Enter your answer as a number in %; do not include the unit.

Item under review: `Cn1nnc2ccccc21` . Reported Activity?
0

Which Activity is listed for `CCCCCCCCSC(=S)n1ccnc1` ?
100

// returns reported Activity for input `N#CCCCSC(=S)n1ccnc1`
100

Please give the measured Activity for this compound: CCCCCCCCCc1ccc(OCCOCCOCCOCCOCCOCCOCCOCCOCCO)cc1 [NONOXYNOL 9]
100

Looking for the measured Activity of `CSC(=S)n1ccnc1C` , can you help?
100

What value of measured Activity is listed for `CSC(=S)n1cncn1` ?
100

What value of measured Activity is listed for `CCCCCCCCCCCCCCCCSC(=S)n1ccnc1C` ?
95

# get_value(readout='Activity', item= `C=CCSC(=S)n1cncn1` )
100

Item `CCCCCCCCSC(=S)n1cnc2ccccc21` has what recorded Activity?
95

Reported Activity, compound `CCCCCCCCSC(=S)n1ccnc1C` : ____
100

State the recorded Activity for this entry: `O=C1c2ccccc2C(=O)N1CCSC(=S)n1ccnc1`
100

For the compound shown here, `CCCCSC(=S)n1ccnc1` , give the reported Activity.
100

Would you kindly share the measured Activity for `N#CCCCSC(=S)n1cnc2ccccc21` ?
100

Endpoint output: Activity of `C=CCSC(=S)n1ccnc1` . Value?
100

Record request: Activity value, item `CSC(=S)n1ccnc1`
100
